Cited source: the supplement of paper PMC10724198

Test system: Saccharomyces cerevisiae
experimentNotes: protein stability index of tFT-peptide fusion (C-terminal peptide) (PSI (0-1 scale)); higher = more stable (slower turnover)
assayContext: genetic background: wild type; temperature: 30 C

primarySequence: SAMTSKVLSFFL [RRT7 C-terminal 12 aa]
protein stability index: 0.696
--
primarySequence: KTVGKLVLEIPQ [ZTA1 C-terminal 12 aa]
protein stability index: 0.701
--
primarySequence: ALAASRAEQPPA [YCR049C C-terminal 12 aa]
protein stability index: 0.712
--
primarySequence: DDDDDGPYADDS [GSY2 C-terminal 12 aa]
protein stability index: 0.706
--
primarySequence: IKAAIDRVDHSL [YKR018C C-terminal 12 aa]
protein stability index: 0.692
--
primarySequence: IDNPEACEMCSG [RNR1 C-terminal 12 aa]
protein stability index: 0.694
--
primarySequence: LLPGNTNLPWTS [ERG12 C-terminal 12 aa]
protein stability index: 0.742
--
primarySequence: FFNISVSTKISF [YER175W-A C-terminal 12 aa]
protein stability index: 0.659
--
primarySequence: KEALLTRLEHMI [SWC7 C-terminal 12 aa]
protein stability index: 0.624
--
primarySequence: SLQFIGEETSSL [YDL026W C-terminal 12 aa]
protein stability index: 0.684
--
primarySequence: GKRRMNPGPSVQ [RPS30A C-terminal 12 aa]
protein stability index: 0.676
--
primarySequence: TARPFPAPNIAA [YLR349W C-terminal 12 aa]
protein stability index: 0.67
--
primarySequence: VKKSNWSNYFKS [PCL2 C-terminal 12 aa]
protein stability index: 0.682
--
primarySequence: ETYGSKIVYRFS [GAL10 C-terminal 12 aa]
protein stability index: 0.703
--
primarySequence: PEALIKSMTSKL [SPS19 C-terminal 12 aa]
protein stability index: 0.725
--
primarySequence: LPKIIKKHQRLS [MRH4 C-terminal 12 aa]
protein stability index: 0.191
--
primarySequence: EDGDNWEVVGKK [TIF3 C-terminal 12 aa]
protein stability index: 0.727
--
primarySequence: SHKGFFQKLGCC [YCK1 C-terminal 12 aa]
protein stability index: 0.677
--
primarySequence: SIHIDDFENENN [YGL036W C-terminal 12 aa]
protein stability index: 0.675
--
primarySequence: GALVGYTIGAYI [GPI11 C-terminal 12 aa]
protein stability index: 0.673
--
primarySequence: WSTFYYLCRKRE [CRG1 C-terminal 12 aa]
protein stability index: 0.701

----------
Test system: Saccharomyces cerevisiae
experimentNotes: protein stability index of tFT-peptide fusion (C-terminal peptide) (PSI (0-1 scale)); higher = more stable (slower turnover)
assayContext: genetic background: wild type; temperature: 30 C
# protein stability index values compiled below
parameter: protein stability index

primarySequence: IKNSCAGCTRDV
assayValue: 0.671
--
primarySequence: RTLNPHLYRLRH
assayValue: 0.682
--
primarySequence: PFSVCVSSSLCG
assayValue: 0.665
--
primarySequence: HTEELKKSIKTQ
assayValue: 0.637
--
primarySequence: RWAMGAAGGLQA
assayValue: 0.697
--
primarySequence: CSLGLGGRVAAL
assayValue: 0.697
--
primarySequence: GPLRFSLPPPPS
assayValue: 0.69

----------
System: Saccharomyces cerevisiae
experimentNotes: protein stability index of tFT-peptide fusion (C-terminal peptide) (PSI (0-1 scale)); higher = more stable (slower turnover)
assayContext: genetic background: wild type; temperature: 30 C

primarySequence: NVALHPGVPRKC
protein stability index: 0.341
--
primarySequence: GAAPRWSGDRRW
protein stability index: 0.71
--
primarySequence: ATLDVTALRQES
protein stability index: 0.636
--
primarySequence: TTSSRDYIELLL
protein stability index: 0.729
--
primarySequence: RASRGLGWRRND
protein stability index: 0.66
--
primarySequence: PPLPPSLPGSSL
protein stability index: 0.642
--
primarySequence: LGSGVQGEGRGW
protein stability index: 0.678
--
primarySequence: PPPSPTPGHPQL
protein stability index: 0.718
--
primarySequence: LQSLRSEVIHSL
protein stability index: 0.651
--
primarySequence: LHGLSGRLLFDV
protein stability index: 0.574
--
primarySequence: HTYKADSLYTAR
protein stability index: 0.748
--
primarySequence: RGGVRGAIHSDL
protein stability index: 0.704
--
primarySequence: PPPGLPPPLPPS
protein stability index: 0.767
--
primarySequence: CVREDSRPFPAS
protein stability index: 0.76
--
primarySequence: PPRVSLLTPSPR
protein stability index: 0.853
--
primarySequence: HKTNTSRKSRRT
protein stability index: 0.737
--
primarySequence: TTMNELPKSIKK
protein stability index: 0.739
--
primarySequence: ALCPPLPMLVVA
protein stability index: 0.21
--
primarySequence: EWAILSLGVMCV
protein stability index: 0.225
--
primarySequence: PIPRAASPLLPM
protein stability index: 0.588
--
primarySequence: HLCLACYRSVDM
protein stability index: 0.688
--
primarySequence: LARWFILRDLIY
protein stability index: 0.56
--
primarySequence: IFGMSGYVSIIL
protein stability index: 0.671
--
primarySequence: LIFRLCVCGVFW
protein stability index: 0.41
--
primarySequence: GSRSLISLRTGA
protein stability index: 0.604
--
primarySequence: LPSLSPPPSLPL
protein stability index: 0.763
--
primarySequence: VPLPPPFPASLT
protein stability index: 0.61
--
primarySequence: PVQNVGAEVRPA
protein stability index: 0.683
--
primarySequence: ESKCADNKMKRK
protein stability index: 0.652
--
primarySequence: PPPPPHALSPPP
protein stability index: 0.664
--
primarySequence: FSLWPVRFVVDR
protein stability index: 0.679
--
primarySequence: QMKDGKTQKWQE
protein stability index: 0.569
--
primarySequence: GPFLFPGASCGL
protein stability index: 0.717
--
primarySequence: APKVICPHLIRL
protein stability index: 0.68
--
primarySequence: GGRWWGRGVFGG
protein stability index: 0.652
--
primarySequence: RPPISLGSLLVG
protein stability index: 0.714
--
primarySequence: TDLGYGRLGGWV
protein stability index: 0.682
--
primarySequence: TLPRSLGPSSPA
protein stability index: 0.753
--
primarySequence: EQSWAIQKVRQG
protein stability index: 0.737
--
primarySequence: AVVRTVVCLNVL
protein stability index: 0.573
--
primarySequence: VFLGCCWVHFFY
protein stability index: 0.534
--
primarySequence: VLCRVALWGVGG
protein stability index: 0.653
--
primarySequence: GGGAGVTLSADG
protein stability index: 0.682
--
primarySequence: PSPPVPPLPPVF
protein stability index: 0.55
--
primarySequence: RERKEVGRRRIG
protein stability index: 0.604
--
primarySequence: DHRGSIWWAGSG
protein stability index: 0.702
--
primarySequence: EGPTRIKRGRSG
protein stability index: 0.685
--
primarySequence: SMGSGCTPSMVS
protein stability index: 0.654
--
primarySequence: HSYLSPPLLASP
protein stability index: 0.715
--
primarySequence: ALTFYYRGWSGL
protein stability index: 0.619
--
primarySequence: VCPPSPTLKPPP
protein stability index: 0.624
--
primarySequence: EKKKKKPKKKRK
protein stability index: 0.687
--
primarySequence: ASLPPLSPPSSL
protein stability index: 0.71
--
primarySequence: PTPPPGLCTPRH
protein stability index: 0.702
--
primarySequence: TLLCGDASVLTA
protein stability index: 0.658
--
primarySequence: PRSPSPPRSPSP
protein stability index: 0.66
--
primarySequence: GGGWDAVGVGGP
protein stability index: 0.75
--
primarySequence: DILCGRCMIVGA
protein stability index: 0.495
--
primarySequence: TNVRMGCELEEK
protein stability index: 0.716
--
primarySequence: GIGVRLGFWCRG
protein stability index: 0.75
--
primarySequence: GGVKGTRFLLRG
protein stability index: 0.622
--
primarySequence: TTITTRSCALSS
protein stability index: 0.707
--
primarySequence: AVGWQRQTEQRR
protein stability index: 0.684
--
primarySequence: PRLRPQTVAFLS
protein stability index: 0.265
--
primarySequence: WGGLGRVWVKLG
protein stability index: 0.706
--
primarySequence: LRRMQGTGCPLP
protein stability index: 0.643
--
primarySequence: RFCGSGPIVPGQ
protein stability index: 0.707
--
primarySequence: LVFSSVVISCDI
protein stability index: 0.528
--
primarySequence: KIKKLKKRNKSY
protein stability index: 0.612
--
primarySequence: HFPPPPRPSAPP
protein stability index: 0.681
--
primarySequence: RINIDLKKIAKK
protein stability index: 0.689
--
primarySequence: FPASPQPPPPLP
protein stability index: 0.627
--
primarySequence: PICCPLILTRSL
protein stability index: 0.706
